tested on: SPI1 type III protein secretion system (SipB secretion); assay: Secondary assay: Type III-dependent protein secretion of the SipB polypeptide by S. enterica (immunoblot); format: cell-based; details: Salmonella enterica, read-out: SipB IC50(uM)
observed property: IC50 (µM)
Numbers only here, please. The scale is µM.

Example entries and their recorded answers appear below.
| compound | result unit | IC50 |
| --- | --- | --- |
| COc1ccc(-c2cc(NC(=O)c3ccc(-c4ccccc4)cc3)c(=O)n(C(Cc3ccc(Cl)cc3)C(=O)O)c2)cc1OC (stereo not shown) | µM | 15.9 |
| O=C(Nc1cc(-c2ccc(-c3ccccc3)cc2)cn(C(CSCc2ccccc2)C(=O)O)c1=O)c1ccc(C(F)(F)F)cc1 (stereo in doubt) | µM | 7.1 |
| O=C(Nc1cc(-c2cccc3ccccc23)cn([C@@H](Cc2ccccc2)C(=O)O)c1=O)c1ccc(C(F)(F)F)cc1 | µM | 82.8 |

Field: next compound
What measured IC50 is associated with O=C(Nc1cc(-c2cccc3ccccc23)cn([C@@H](COCc2ccccc2)C(=O)O)c1=O)c1ccc(C(F)(F)F)cc1 on SPI1 type III protein secretion system (SipB secretion)? 49.2
